Target: T1, glucagon receptor (target of the KD / T½ of Tables 1A, 1B and 2B) (Homo sapiens (Human), UniProt P47871 26-136)
T1 construct: not shown: Human Fc carrier (and any linker) of the ECD-Fc fusion
T1 sequence (P47871 26-136 limits assumed): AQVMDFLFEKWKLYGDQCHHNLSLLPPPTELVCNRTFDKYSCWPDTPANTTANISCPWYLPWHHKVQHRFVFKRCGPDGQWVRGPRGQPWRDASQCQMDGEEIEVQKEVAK
Test: not stated (column of Table 1B)
Observable: pKd
// scale note: pKd = -log10(conc_M); give the bare number

Binder	Observable	Measured
FF2 (antibody, V domains shown) VH: QVQLVQSGAEVKKPGASVKVSCKASGYTFTDFSVHWVRQAPGQGLEWMGWINTEYDFTSYADDFKGRVTMTRDTSTSTVYMELSSLRSEDTAVYYCVKSLYWSYGPPDYWGQGTTVTVSS VL: DIQMTQSPSSLSASVGDRVTITCQASQNIRTAVVWYQQKPGKAPKLLIYLASNRHSGVPSRFSGSGSGTDFTFTISSLQPEDIATYYCLQHWTYPFTFGGGTKVEIK	pKd	9.77
FF2-H2WT H3RY (antibody, V domains shown) VH: QVQLVQSGAEVKKPGASVKVSCKASGYTFTDFSVHWVRQAPGQGLEWMGWINTETDETSYADDFKGRVTMTRDTSTSTVYMELSSLRSEDTAVYYCVKSRYWSYGPPDYWGQGTTVTVSS VL: DIQMTQSPSSLSASVGDRVTITCQASQNIRTAVVWYQQKPGKAPKLLIYLASNRHSGVPSRFSGSGSGTDFTFTISSLQPEDIATYYCLQHWTYPFTFGGGTKVEIK	pKd	9.65

Data request: Using the record for FF2-H2RG (antibody, V domains shown) VH: QVQLVQSGAEVKKPGASVKVSCKASGYTFTDFSVHWVRQAPGQGLEWMGWINTETRGTSYADDFKGRVTMTRDTSTSTVYMELSSLRSEDTAVYYCVKSLYWSYGPPDYWGQGTTVTVSS VL: DIQMTQSPSSLSASVGDRVTITCQASQNIRTAVVWYQQKPGKAPKLLIYLASNRHSGVPSRFSGSGSGTDFTFTISSLQPEDIATYYCLQHWTYPFTFGGGTKVEIK , report its pKd.
Data returned: 9.73

Ref: patent US20160311912A1
